# Tested on: mice
# stated-conditions: mice, i.p., 0.5 h, 300 mg/kg (+)
Marks after values point to notes of the source that are not given here.
endpoint: Rotorod Toxicity (number of animals exhibiting toxicity/number of animals tested)

# sample-smiles, value
measured = [
    ("CCOC(=O)CC1(CNC(=O)OCCSSCCOC(C)=O)CCCCC1", "(1/4)"),
]

----------
# Tested on: rats
# procedure-text: Neurotoxicity, rats p.o. (Test 2 and Test 3)
# stated-conditions: Test 2, rats p.o., 30 mg/kg, 4.00 h
endpoint: Toxicity (number of animals exhibiting toxicity/number of animals tested)

These recorded examples may help you get a feel for the data.
# sample-smiles, value
measured = [
    ("Nc1nc(NC(=O)OCCSSCCO)nnc1-c1cccc(Cl)c1Cl", "0/4"),
    ("Cl.Nc1nc(NC(=O)OCCSSCCNC(=O)c2cccnc2)nnc1-c1cccc(Cl)c1Cl", "0/4"),
    ("Nc1nc(NC(=O)OCCSSCCOC(=O)NCC2(CC(=O)O)CCCCC2)nnc1-c1cccc(Cl)c1Cl", "0/4"),
]

The following compounds each have a reported value; give each one's Toxicity (number of animals exhibiting toxicity/number of animals tested).
1. Nc1nc(NC(=O)OCCSSCCOC(=O)c2cccnc2)nnc1-c1cccc(Cl)c1Cl
2. CCOC(=O)CC1(CNC(=O)OCCSSCCOC(=O)Nc2nnc(-c3cccc(Cl)c3Cl)c(N)n2)CCCCC1
3. CS(=O)(=O)NC(=O)OCCSSCCOC(=O)Nc1nnc(-c2cccc(Cl)c2Cl)c(N)n1

1: 0/4; 2: 0/4; 3: 0/4

----------
# System: rats
# procedure-text: Neurotoxicity, rats p.o. (Test 2 and Test 3)
# stated-conditions: Test 2, rats p.o., 30 mg/kg, 1.00 h
Would you kindly list Toxicity (number of animals exhibiting toxicity/number of animals tested) for each of these compounds?

These recorded examples may help you get a feel for the data.
# compound, value
records = [
    ("Nc1nc(NC(=O)OCCSSCCOC(=O)NCC2(CC(=O)O)CCCCC2)nnc1-c1cccc(Cl)c1Cl [I-AA-MPD11]", "0/4"),
    ("Cl.Nc1nc(NC(=O)OCCSSCCNC(=O)c2cccnc2)nnc1-c1cccc(Cl)c1Cl [I-CA-MPD25]", "0/4"),
    ("Nc1nc(NC(=O)OCCSSCCO)nnc1-c1cccc(Cl)c1Cl [I-A1-PD4]", "0/4"),
]

The following compounds each have a reported value; give each one's Toxicity (number of animals exhibiting toxicity/number of animals tested).
1. CCOC(=O)CC1(CNC(=O)OCCSSCCOC(=O)Nc2nnc(-c3cccc(Cl)c3Cl)c(N)n2)CCCCC1 [I-AA-MPD12]
2. Nc1nc(NC(=O)OCCSSCCOC(=O)c2cccnc2)nnc1-c1cccc(Cl)c1Cl [I-CA-MPD24]
3. CS(=O)(=O)NC(=O)OCCSSCCOC(=O)Nc1nnc(-c2cccc(Cl)c2Cl)c(N)n1 [I-A1-PD15]

1. 0/4
2. 0/4
3. 0/4
